# test: Lipophilicity, log D of the compound at pH 7.4 by shake-flask method
# Type: physicochemical
# test conditions: buffer
Listed here: items and their measured logD.
quantity: logD

COc1ccc(-c2cc(=O)[nH]c(=S)n2CCOC(C)C)c(OC)c1 :: 2.6
COc1ccc(Cl)cc1-c1cc(=O)[nH]c(=S)n1CC(N)=O :: 0.81
COc1ccc(-c2cc(=O)[nH]c(=S)n2CC(N)=O)c(OC)c1 :: 0.59
COc1ccc(-c2cc(=O)[nH]c(=S)n2CC(=O)NCCN)c(OC)c1 :: -1.4
COc1ccc(OC)c(-c2cc(=O)[nH]c(=S)n2CC(N)=O)c1 :: 0.34
COc1ccc(-c2cc(=O)[nH]c(=S)n2CCO)c(OC)c1 :: 1.1
COc1ccc(-c2cc(=O)[nH]c(=S)n2CCN)c(OC)c1 :: -0.17
COc1ccccc1-c1cc(=O)[nH]c(=S)[nH]1 :: 1.3

* * *

# test: Tmax in Beagle dog at 3 or 5 mg/kg, po
# Format: ADME, organism-based, Canis lupus familiaris
# test conditions: in vivo
Criterion: Tmax strictly under 1 h. Met: criterion met. Not met: criterion not met.

COc1ccc(-c2cc(=O)[nH]c(=S)n2CC(N)=O)c(OC)c1 :: criterion not met
COc1ccc(-c2cc(=O)[nH]c(=S)n2CCO)c(OC)c1 :: criterion not met
COc1ccc(Cl)cc1-c1cc(=O)[nH]c(=S)n1CC(N)=O [PF-06282999] :: criterion met
COc1ccc(-c2cc(=O)[nH]c(=S)n2CCN)c(OC)c1 :: criterion not met
COc1ccc(OC)c(-c2cc(=O)[nH]c(=S)n2CC(N)=O)c1 :: criterion met

* * *

# test: Fraction unbound in monkey plasma at 2 uM by equilibrium dialysis method
# Format: ADME, cell-free, Macaca mulatta
# test conditions: rhesus monkey
quantity: fraction unbound at 2 µM

COc1ccc(Cl)cc1-c1cc(=O)[nH]c(=S)n1CC(N)=O :: 0.536

* * *

# test: Fraction unbound in rat plasma at 2 uM by equilibrium dialysis method
# Assay type: ADME, cell-free
quantity: fraction unbound at 2 µM

COc1ccc(Cl)cc1-c1cc(=O)[nH]c(=S)n1CC(N)=O [PF-06282999] :: 0.447

* * *

# test: Volume of distribution at steady state in Wistar rat at 1 mg/kg, iv and 3 or 5 mg/kg, po
# Format: ADME, organism-based
# test conditions: in vivo, read-out: Vdss
quantity: Vd (L/kg)

COc1ccc(Cl)cc1-c1cc(=O)[nH]c(=S)n1CC(N)=O [PF-06282999] :: 2.13
COc1ccc(-c2cc(=O)[nH]c(=S)n2CCN)c(OC)c1 :: 3.71
COc1ccc(-c2cc(=O)[nH]c(=S)n2CCO)c(OC)c1 :: 0.82
COc1ccc(-c2cc(=O)[nH]c(=S)n2CC(N)=O)c(OC)c1 :: 1.23
COc1ccc(OC)c(-c2cc(=O)[nH]c(=S)n2CC(N)=O)c1 :: 0.83
COc1ccc(-c2cc(=O)[nH]c(=S)n2CC(=O)NCCN)c(OC)c1 :: 0.59

* * *

# assayed system: Cytochrome P450 1A2 (Homo sapiens)
# Sequence (P05177 whole entry): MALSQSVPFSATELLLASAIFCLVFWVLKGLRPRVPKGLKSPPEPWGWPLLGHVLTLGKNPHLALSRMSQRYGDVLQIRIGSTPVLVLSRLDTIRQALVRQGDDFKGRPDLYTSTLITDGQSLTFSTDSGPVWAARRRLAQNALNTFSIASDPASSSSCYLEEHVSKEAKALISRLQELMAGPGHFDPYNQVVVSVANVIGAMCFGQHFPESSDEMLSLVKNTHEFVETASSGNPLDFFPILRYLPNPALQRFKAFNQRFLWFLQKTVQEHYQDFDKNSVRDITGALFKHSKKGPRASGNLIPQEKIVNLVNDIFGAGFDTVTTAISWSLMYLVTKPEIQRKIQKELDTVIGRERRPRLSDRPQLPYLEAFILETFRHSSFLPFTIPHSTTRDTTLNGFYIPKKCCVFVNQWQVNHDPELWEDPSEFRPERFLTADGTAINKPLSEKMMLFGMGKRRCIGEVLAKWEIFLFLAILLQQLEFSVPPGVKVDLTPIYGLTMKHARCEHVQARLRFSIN
# test: Reversible inhibition of CYP1A2 phenacetin O-deethylase activity in human liver microsomes by LC-MS/MS analysis
# Format: ADME
pIC50: −log10 of the molar value.
quantity: pIC50

COc1ccc(Cl)cc1-c1cc(=O)[nH]c(=S)n1CC(N)=O :: < 4.00
